System: HL-60
Assay: NCI tumour cell line growth inhibition, 48 h
Activity calls are given as the source filed them. No stated cut-off is given here; in the data, active = GI50 up to about 1.1 µM and inactive = higher.
Measured Attribute: GI50

Give the reported GI50 for this molecule. COCC(OC)C(CC=C(C#N)C#N)OC (centres undefined)
> 100 µM (inactive)

Provide GI50 value for the following molecule: O=C1CN(c2cccc(C(F)(F)F)c2)C(=O)CN1CCN1CC(=O)N(c2cccc(C(F)(F)F)c2)CC1=O
> 100 µM (inactive)

Give the measured GI50 for CN(CCNC(=O)c1nn(-c2ccccc2)c2c1ccc1ccccc12)CCNC(=O)c1nn(-c2ccccc2)c2c1ccc1ccccc12
1.95 µM (inactive)

Read the entry O=S(=O)(O)c1cc(S(=O)(=O)O)c2c(Nc3ccnc4ccccc34)ccc(S(=O)(=O)O)c2c1 and write its reported GI50.
> 100 µM (inactive)

Return value of GI50 for input C=C(C)[C@@]1(OC(=O)c2cc([N+](=O)[O-])cc([N+](=O)[O-])c2)C[C@@H]2CCCC[C@@H]21 , no commentary.
95.1 µM (inactive)

Give recorded GI50. COC(=O)/C=C1\CCC(C)(C(=O)NS(=O)(=O)c2ccc(C)cc2)C1(C)C (centres undefined)
> 100 µM (inactive)

Provide measured GI50 value, entry: COC1/C=C/C=C(/C)Cc2cc(O)c(Cl)c(c2)N(C)C(=O)CC(OC(=O)C(C)C)C2(C)OC2C(C)C2CC1(O)NC(=O)O2 (centres undefined)
< 0.01 µM (active)

Note down GI50 recorded for CCCCCCC(O)C/C=C/CCCCCC/C(C(=O)OC)=C(/O)C(=O)OCC (centres undefined)
67.1 µM (inactive)

Specify reported GI50 for the molecule shown: CCCCCCCCCCCC(=O)OC[C@@H](C[As](=O)(O)O)OC(=O)CCCCCCCCCCC
2.95 µM (inactive)

----------
Tested on: UACC-62
Assay: NCI tumour cell line growth inhibition, 48 h
Activity calls are given as the source filed them. No stated cut-off is given here; in the data, active = GI50 up to about 1.1 µM and inactive = higher.
Measured Attribute: GI50

Entry CCN(CC)c1ccc(/N=N/c2ccc(-c3nc4cccnc4s3)cc2)cc1 needs its GI50 filled in; supply it.
97.9 µM (inactive)

Give the value of GI50 reported for the following: COCC(OC)C(CC=C(C#N)C#N)OC (centres undefined)
> 100 µM (inactive)

Read the entry S=C(NCCCCCCNC(=S)Nc1c2ccccc2nc2ccccc12)Nc1c2ccccc2nc2ccccc12 and write its reported GI50.
> 100 µM (inactive)

Given COc1cc(C=O)c(-c2cc3c(cc2C2(C)OCCS2)OCO3)c(OC)c1OC (centres undefined) , respond with its GI50.
12.6 µM (inactive)

Quickly give me recorded GI50 for COc1ccc(/N=C(Nc2ccc(OC)cc2)/C(=N/c2ccc(OC)cc2)Nc2ccc(OC)cc2)cc1
> 100 µM (inactive)

Give the reported GI50 for this compound. C[N+]1=C2[B-](C(C)(C)C)=[N+](C(C)(C)C)[B-]2(C(C)(C)C)[N+](C)=C2[B-](C(C)(C)C)=[N+](C(C)(C)C)[B-]21C(C)(C)C (centres undefined)
> 100 µM (inactive)

Give the value of GI50 reported for the following: O=C(CC(=O)c1cccc2ccccc12)C(=O)NC1C2CC3CC(C2)CC1C3 (centres undefined)
> 100 µM (inactive)

Quickly give me recorded GI50 for O=C(COc1ccc2c(=O)cc(-c3ccc(Cl)cc3)oc2c1)N1CCN(c2ccccc2)CC1
> 100 µM (inactive)

Consider the compound C/C(CC(=O)Nc1cccc(Cl)c1C)=N\NC(=O)c1ccncc1 . State its measured GI50.
> 100 µM (inactive)

----------
Test system: COLO 205
Assay: NCI tumour cell line growth inhibition, 48 h
Active and inactive are the calls of the source. No stated cut-off is given here; in the data, active = GI50 up to about 1.1 µM and inactive = higher.
API: response.call in active, inactive

What was the test verdict on CCOC(=O)CC1=N/C(=N/C(=N)N[N+](=O)[O-])SC1 ?
inactive

Field: outcome | Entry: c1ccc(COc2ccc(C[P+](c3ccccc3)(c3ccccc3)c3ccccc3)cc2)cc1
active

Recorded test call requested for [N-]=[N+]=Nc1ncnc2c1sc(=S)n2-c1ccccc1
inactive

Name the outcome recorded for COc1ccc(-n2c(=O)[nH]n(C(C)=O)c2=O)cc1 in the assay.
inactive

How did this test come out for CC(=O)OC/C=C/Cn1nc(Br)c(=O)[nH]c1=O ?
inactive

What did this assay record as the result for C[N+]1=C2[B-](C(C)(C)C)=[N+](C(C)(C)C)[B-]2(C(C)(C)C)[N+](C)=C2[B-](C(C)(C)C)=[N+](C(C)(C)C)[B-]21C(C)(C)C (stereo unspecified) ?
inactive

Test call for this compound, please: COC(CN(C)C(=O)C(C)NC(=O)c1ccccc1)OC (stereo unspecified)
inactive

What outcome does the record of this test show for CC(=O)OC1CCC2(C)C(=CCC3C2CCC2(C)C3CC3OC4(CCC(C)CN4)C(C)C32)C1 (stereo unspecified) ?
inactive

// param item: O=C(c1ccccc1)N1C(=S)NC(=N/c2ccccc2)/C1=N\c1ccccc1 ; yields the recorded call
inactive

Give the logged outcome of this assay for the following compound: C=CC(=C)CCC(Br)C(C)(C)Br (stereo unspecified)
inactive

Query: recorded result category for O=c1c(F)cn2c(=O)n1CCCCCCCn1c(=O)c(F)cn(c1=O)CCCCCCC2 in this test
inactive

I would be grateful if you could indicate the recorded call for C1=C2SSC3=CC=C(SSc4ccc(s4)SSC4=CC=C(SSC(=C1)S2)S4)S3 .
inactive

Recorded test outcome, item O=C(/C=C/c1cc(Cl)cc(Cl)c1O)c1cccc(O)c1
inactive

Outcome logged for CCOc1cc(C2CC(c3ccc(NS(=O)(=O)c4cc([N+](=O)[O-])ccc4C)cc3)=NN2C(=O)c2ccccc2)ccc1O (stereo unspecified) in this assay:
inactive

Hi, sorry to bother you, what did the test record for CCOC(=O)c1sc2nc(SC)nc(Nc3ccc(OC)c(OC)c3)c2c1N ?
inactive

Write down the call the test reported for this compound. Item: C1=CC(N(c2ccccc2)C2C=CCCC2)CCC1 (stereo unspecified)
inactive

Per the assay record, what outcome was assigned to CC(C)(C)c1cc(C2COC(=O)COCCOCC(=O)OCCOCCO2)cc(C(C)(C)C)c1O (stereo unspecified) ?
inactive

Test call, this compound: COc1ccc(C(NCCNC(c2ccc(OC)c(OC)c2)c2cc3c(cc2O)OCO3)c2cc3c(cc2O)OCO3)cc1OC (stereo unspecified)
inactive

Which outcome did this test record for the compound O=c1cccccc1O.O=c1cccccc1O.O=c1cccccc1O.[SiH4] ?
inactive

Record request — test call for C1OC1CO[C@@H]1CO[C@H]2[C@@H]1OC[C@H]2OCC1CO1 (stereo partly specified)
inactive

For this compound, state the assay outcome: c1ccc2cc3c(cc2c1)OP1(Oc2cccc4cccnc24)(O3)Oc2cc3ccccc3cc2O1
inactive

----------
Test system: TK-10
Assay: NCI tumour cell line growth inhibition, 48 h
The source made the active and inactive calls. No stated cut-off is given here; in the data, active = GI50 up to about 1.1 µM and inactive = higher.
Log the outcome using a class from active, inactive

Returns: the outcome recorded for CSc1ccc(/C=C2\N=C(c3ccccc3)N(c3nc4cc(C)c(C)cc4s3)C2=O)cc1 in this assay.
inactive

Fill in: this test's call for CCCC(CCC(=O)O)(CCC(=O)O)[N+](=O)[O-] is ___
inactive

Which outcome did this test record for the compound CCC(=O)c1cc(C(=O)C(=S)SC)cc(C(=O)C(=S)SC)c1 ?
inactive

Would you mind telling me which call this test gave Nc1ccc2nc3n(c(=O)c2c1)CCCCC3 ?
inactive

So what was the verdict on COCC(OC)C(CC=C(C#N)C#N)OC (stereo not given) in this test?
inactive

Returns: the outcome recorded for CCC(/C=C/c1ccccc1)=N\Nc1ccc(Cl)c(Cl)c1 in this assay.
inactive

Record lookup: outcome of this test for Cc1[nH]c(C)c(CN(C)C)c1CN(C)C ?
inactive

# outcome recorded in this test, key = CC(=O)OCC1=C(C)C[C@H]([C@@H](COC(C)=O)C2CCC3C4C[C@H]5O[C@]56CC=CC(=O)[C@]6(C)C4CC[C@@]32C)OC1=O (stereo not given in full)
active

Could you please tell me the result logged for CC(=O)C1(O)CCC2(O)C3(O)CC=C4CC(O)CCC4(C)C3CC(OC(=O)c3ccc(O)cc3)C12C (stereo not given) in this assay?
inactive

Recorded call for COC(=O)c1cccc2cccc(C(=O)Nc3ccc(C)cc3C)c12 ?
inactive

----------
Please go through the items and note down their GI50.
Test system: COLO 205
Assay: NCI tumour cell line growth inhibition, 48 h
Calls of active or inactive are those of the source. Rule as the data show it: active = GI50 up to about 1.1 µM and inactive = higher.

Write GI50 of CCOc1cc2c(cc1OC(C)=O)C(=O)CC[C@H]1C3CC[C@H](OC(C)=O)[C@@]3(C)CC[C@H]21 (stereo partly specified) ; system used: COLO 205
> 100 µM (inactive)

Answer with GI50 of C=C(C)C(=O)CC[C@@H](C)[C@H]1[C@@H](OC2OC(CO)C(O)C(O)C2O)C[C@@]2(C)[C@@H]3C[C@H](O)C4C(C)(C)[C@@H](OC5OC(CO)C(O)C(O)C5O)CC[C@@]45C[C@@]35CC[C@]12C (stereo partly specified) measured for COLO 205.
92 µM (inactive)

Give measured GI50 for COC(=O)C1=C(C)N(NC(N)=O)C2(N)N(NC(N)=O)C(C)=C(C(=O)OC)C12C(=O)OC (stereo unspecified) (COLO 205).
> 100 µM (inactive)

Report GI50 from COLO 205 testing of COc1ccc(/C(=N\NC(=N)N)C(c2ccc(OC)cc2)C2OC(=O)c3ccccc32)cc1 (stereo unspecified)
> 100 µM (inactive)

Give GI50; test system COLO 205; compound Cn1cc(NC(=O)c2cc(NC(=O)CCCCCC(=O)Nc3cc(C(=O)Nc4cc(C(=O)NCCC(=N)N)n(C)c4)n(C)c3)cn2C)cc1C(=O)NCCC(=N)N
> 100 µM (inactive)

Answer with GI50 of CC(C)(O)[C@@H]1CCC(C)([C@H]2[C@@H](O)CC3(C)C4CC(OC5OC(CO)C(O)C(O)C5O)C5C(C)(C)[C@@H](OC6OCC(O)C(O)C6O)CC[C@@]56C[C@@]46CC[C@]23C)O1 (stereo partly specified) measured for COLO 205.
> 100 µM (inactive)
